experiment: Transdermal delivery of melatonin: plasma level of melatonin after applying composition to skin of a subject; conditions: human, plasma, topical, Plasma level of melatonin, 2-(Diethylamino)ethyl 2-acetoxybenzoate hydrochloride 221.69 mM, 0.375 mL applied to skin, 2 hr after transdermal administration
EXPERIMENTAL_READOUT: concentration at 2 h

stdin: Sample COc1ccc2[nH]cc(CCNC(C)=O)c2c1 — what was its concentration at 2 h?
stdout: 2.6 ng/mL

---

experiment: Transdermal delivery of melatonin: plasma level of melatonin after applying composition to skin of a subject; conditions: human, plasma, topical, 3 mg, Plasma level of melatonin, salt of tryptophan isopropyl ester, A− = Benzoate ion, 189.98 mM, 0.30 mL applied, 2 hr after transdermal administration
EXPERIMENTAL_READOUT: concentration at 2 h (ng/mL)
Numbers only; they are read as ng/mL.

stdin: Sample COc1ccc2[nH]cc(CCNC(C)=O)c2c1 [Melatonin] — what was its concentration at 2 h?
stdout: 1.8

---

experiment: Transdermal delivery of melatonin: plasma level of melatonin after applying composition to skin of a subject; conditions: human, plasma, topical, 3 mg, Plasma level of melatonin, Tryptophan butyl ester hydrochloride 235.90 mM, 0.3 mL applied to skin, 2 hr after transdermal administration
EXPERIMENTAL_READOUT: concentration at 2 h
Output should be the measured figure followed by the unit it is expressed in.

stdin: Sample COc1ccc2[nH]cc(CCNC(C)=O)c2c1 — what was its concentration at 2 h?
stdout: 1.9 ng/mL

---

assay: Transdermal delivery of melatonin: plasma level of melatonin after applying composition to skin of a subject; settings: human, plasma, topical, Plasma level of melatonin, salt of tryptophan isopropyl ester, A− = Lactate ion, 208.11 mM, 0.30 mL applied, 2 hr after transdermal administration
EXPERIMENTAL_READOUT: concentration at 2 h (ng/mL)
Numbers only; they are read as ng/mL.

stdin: Sample COc1ccc2[nH]cc(CCNC(C)=O)c2c1 — what was its concentration at 2 h?
stdout: 2

---

assay: Transdermal delivery of melatonin: plasma level of melatonin after applying composition to skin of a subject; details: human, plasma, topical, 3 mg, Plasma level of melatonin, salt of tryptophan isopropyl ester, A− = Br^−, 220.92 mM, 0.30 mL applied, 1 hr after transdermal administration
EXPERIMENTAL_READOUT: concentration at 1 h (ng/mL)
Numbers only; they are read as ng/mL.

stdin: Sample COc1ccc2[nH]cc(CCNC(C)=O)c2c1 [Melatonin] — what was its concentration at 1 h?
stdout: 2.4

---

assay: Transdermal delivery of melatonin: plasma level of melatonin after applying composition to skin of a subject; details: human, plasma, topical, Plasma level of melatonin, salt of tyrosine isopropyl ester, A− = Citrate ion, 168.49 mM, 0.30 mL applied, 2 hr after transdermal administration
EXPERIMENTAL_READOUT: concentration at 2 h (ng/mL)
Numbers only; they are read as ng/mL.

stdin: Sample COc1ccc2[nH]cc(CCNC(C)=O)c2c1 [Melatonin] — what was its concentration at 2 h?
stdout: 2.3

---

Exercise: for every item that follows, state its recorded Skin penetration rate of Al compound.
system: human skin tissue; assay: Penetration rate of AI compound in AI-helper composition through human skin in vitro, modified Franz cells; assay type: in vitro ADME; conditions: L-Phenylalanine isopropyl ester hydrochloride 6% w/v, Al compound 0.5% w/v, water, 25 °C
Numbers only; they are read as μg/cm^2/h.

stdin: Sample N[C@@H](CCC(=O)N[C@@H](CS)C(=O)NCC(=O)O)C(=O)O — what was its Skin penetration rate of Al compound?
stdout: 17.358

stdin: Sample CC1=C(/C=C/C(C)=C/C=C/C(C)=C/C=C/C=C(C)/C=C/C=C(C)/C=C/C2=C(C)CCCC2(C)C)C(C)(C)CCC1 — what was its Skin penetration rate of Al compound?
stdout: 10.772

stdin: Sample Oc1ccc(C=Cc2cc(O)cc(O)c2)cc1 — what was its Skin penetration rate of Al compound?
stdout: 18.978

stdin: Sample O=C1O[C@H]([C@@H](O)CO)C(O)=C1O — what was its Skin penetration rate of Al compound?
stdout: 10.301

stdin: Sample Nc1nc2ncc(CNc3ccc(C(=O)N[C@@H](CCC(=O)O)C(=O)O)cc3)nc2c(=O)[nH]1 — what was its Skin penetration rate of Al compound?
stdout: 6.757

stdin: Sample O=C(O)CCCCC1CCSS1 (stereo not drawn) — what was its Skin penetration rate of Al compound?
stdout: 32.878

stdin: Sample NCCS(=O)(=O)O — what was its Skin penetration rate of Al compound?
stdout: 8.372

stdin: Sample CC1=C(/C=C/C(C)=C/C=C/C(C)=C/C=C/C=C(C)/C=C/C=C(C)/C=C/C2=C(C)C(=O)[C@@H](O)CC2(C)C)C(C)(C)C[C@H](O)C1=O — what was its Skin penetration rate of Al compound?
stdout: 12.341

stdin: Sample Cc1ncc(CO)c(CO)c1O.Cl — what was its Skin penetration rate of Al compound?
stdout: 16.751

Reference for the values: patent US9962369B2
